Origin of measurements: PubChem BioAssay AID1259407

# System: CCRIS mutagenicity, Ames/micronucleus/aberration tests
# assaySummary: CCRIS mutagenicity studies
# conditionsUsed: Test System: AMES SALMONELLA TYPHIMURIUM; Strain/Indicator: TA98; Metabolic Activation: RAT, LIVER, S-9, AROCLOR 1254; Method: PREINCUBATION
Active and inactive are the calls of the source. How the calls were made is not given here.
Permitted responses: active, inactive

{"columns": ["compound", "classAssignment"],
 "data": [
  ["C(=C/c1ccccc1)/c1ccccc1", "inactive"]
]}

Query block: So what was the verdict on Nc1ccc2c(n1)[nH]c1ccccc12 in this test?
Result block: active

Query block: So what was the verdict on CN(C)c1ccc([C@H]2C[C@]3(C)[C@@H](CC[C@]3(O)CCCO)[C@@H]3CCC4=CC(=O)CCC4=C32)cc1 in this test?
Result block: inactive

Query block: So what was the verdict on CS(C)(=O)=O in this test?
Result block: inactive

Query block: So what was the verdict on CC(=O)Nc1ccc(Oc2ccc(N(OC(C)=O)C(C)=O)cc2)cc1 in this test?
Result block: active

###

# Tested on: CCRIS mutagenicity, Ames/micronucleus/aberration tests
# assaySummary: CCRIS mutagenicity studies
# conditionsUsed: Test System: AMES SALMONELLA TYPHIMURIUM; Strain/Indicator: TA98; Metabolic Activation: RAT, LIVER, S-9, AROCLOR 1254; Method: STANDARD PLATE
The source made the active and inactive calls. The rule behind the calls is not given here.
quantityKind: mutagenic call

Example compounds with recorded mutagenic call:
{"columns": ["smilesNotation", "testedTarget", "quantityKind", "observedValue"],
 "data": [
  ["CN(C)c1ccc2cc3ccc(N(C)C)cc3nc2c1", "CCRIS mutagenicity, Ames/micronucleus/aberration tests", "mutagenic call", "active; positive"],
  ["ClCc1cccnc1", "CCRIS mutagenicity, Ames/micronucleus/aberration tests", "mutagenic call", "inactive; negative"],
  ["CCCCOCC=O", "CCRIS mutagenicity, Ames/micronucleus/aberration tests", "mutagenic call", "inactive; negative"],
  ["CON(C)C(=O)Nc1ccc(Br)cc1", "CCRIS mutagenicity, Ames/micronucleus/aberration tests", "mutagenic call", "inactive; negative"],
  ["O=Cc1cccc(-c2ccccc2)c1", "CCRIS mutagenicity, Ames/micronucleus/aberration tests", "mutagenic call", "inactive; negative"]
]}

Query block: # lookup: mutagenic call of c1cc2ccc3cc4occc4c4ccc(c1)c2c34
Result block: active; positive

Query block: # lookup: mutagenic call of CSC(C)(C)/C=N/O
Result block: inactive; negative

###

# Tested on: CCRIS mutagenicity, Ames/micronucleus/aberration tests
# assaySummary: CCRIS mutagenicity studies
# conditionsUsed: Test System: AMES SALMONELLA TYPHIMURIUM; Strain/Indicator: TA1538; Metabolic Activation: NONE; Method: STANDARD PLATE
Activity calls are given as the source filed them. How the calls were made is not given here.
quantityKind: mutagenic call

{"columns": ["smilesNotation", "mutagenic call"],
 "data": [
  ["C[C@]12CC[C@@H]3c4ccc(O)cc4CC[C@H]3[C@@]13CC[C@]2(O)[C@H](O)C3", "inactive; negative"],
  ["COc1cc(N=Nc2ccc(N)cc2)c(C)cc1N=Nc1c(S(=O)(=O)O)cc2ccc(N)cc2c1O", "inactive; negative"],
  ["COCCCN", "inactive; negative"],
  ["ClCC(CCl)(CCl)CCl", "inactive; negative"],
  ["CN(C)CCCNc1c2ccccc2nc2cccc([N+](=O)[O-])c12", "active; positive"]
]}

Query block: # lookup: mutagenic call of CCCCOc1cc(N=Nc2ccc(N(CC)CC)cc2)ccc1N=Nc1c(S(=O)(=O)O)cc2ccc(N)cc2c1O
Result block: inactive; negative
